# System: RPMI-8226 leukemia
# Experiment Summary: NCI tumour cell line growth inhibition, 48 h; in the data active = GI50 below about 0.43 µM; inactive = the rest
Outcome field: choose from class 1 (active), class 0 (inactive)

Examples with answers:
# Compound, Assigned Category
measured = [
    ("Cc1cc2nc3c4cc([N+](=O)[O-])ccc4n(CCN(C)C)c3nc2cc1C", "class 0"),
    ("Nc1nc(Cl)nc2c1ncn2C1OC(CO)C(O)C1O (configuration not stated)", "class 0"),
    ("O=C1Nc2c(ccc(Cl)c2Cl)/C1=C\\c1cc(C(F)(F)F)cc(C(F)(F)F)c1", "class 1"),
    ("Cn1cc(-c2ccc3nnc(C(F)(F)c4ccc5ncccc5c4)n3n2)cn1", "class 0"),
    ("COc1cc(/C=C/c2ccc(S(N)(=O)=O)cc2)cc(OC)c1", "class 0"),
]

Shift focus to the following entry.
### Prompt Can you look up the reported call for CCOC(=O)Nc1cc(-c2ccc(C)c(NS(C)(=O)=O)c2)nn2c(C)nnc12 for me?
### Response class 0

###

Readings of TGI for the listed compounds
# Test system: SF-268 CNS
# Experiment Summary: NCI tumour cell line growth inhibition, 48 h

// below: answered compounds
# Compound, TGI
measured = [
    ("Nc1nc(-c2ccc3ccccc3c2)cc(-c2cc(-c3ccc4ccccc4c3)nc(N)n2)n1", "> 100 µM"),
    ("O=C(Nc1nc(-c2ccccc2Cl)cs1)c1cc(-c2ccc(Cl)cc2)nc2ccc(Cl)cc12", "32.9 µM"),
    ("COc1cc(C2c3cc4c(cc3OC(NNc3ccccc3)C2C)OCO4)cc(OC)c1O (stereo unspecified)", "27.4 µM"),
    ("CON(C(=O)OC(C)(C)C)c1ccccc1", "> 100 µM"),
    ("COc1ccc2c(c1)CC1N(C)CCC13CCCCC23 (stereo unspecified)", "> 100 µM"),
    ("CCOC(=O)c1cc([N+](=O)[O-])cc([N+](=O)[O-])c1Sc1ncnc2nc[nH]c12", "16 µM"),
]

// TGI (SF-268 CNS) for N/C(=N\C(N)=N\c1nc2ccccc2s1)c1ccnc(Br)c1 = > 100 µM

// TGI (SF-268 CNS) for O=C1NC2OC(CO)C(O)C(O)C2O1 (stereo unspecified) = > 100 µM

// TGI (SF-268 CNS) for CCOC(=O)C1=C(O)c2ccc(OC)cc2C(=O)C1=O = > 100 µM

// TGI (SF-268 CNS) for COc1cc(/C=C/C2=NN(c3cccc(S(=O)(=O)O)c3)C3(C2)SCC(=O)N3c2nc3ccccc3s2)cc(OC)c1OC (stereo unspecified) = > 100 µM

// TGI (SF-268 CNS) for c1ccc(N2N=NC3C4CC(C5c6ccccc6C45)C32)cc1 (stereo unspecified) = > 100 µM

// TGI (SF-268 CNS) for CCOC(=O)CCC(C(=O)OCC)n1nnc2ccc(Nc3c(C)[n+]([O-])c4cc(F)c(OCC)cc4[n+]3[O-])cc21 (stereo unspecified) = > 100 µM

###

# Test system: HCC-2998 colon
# Experiment Summary: NCI tumour cell line growth inhibition, 48 h
Reported Property: TGI

// below: answered compounds
# Compound, Tested System, Reported Property, Reading
measured = [
    ("N/C(=N/N=C/c1cccc(F)c1)NO", "HCC-2998 colon", "TGI", "> 100 µM"),
    ("O=[P+](O)c1cccnc1", "HCC-2998 colon", "TGI", "> 100 µM"),
    ("CN1CCN(Cn2nc(-c3cc(F)c(Cl)cc3Cl)oc2=S)CC1", "HCC-2998 colon", "TGI", "> 100 µM"),
    ("CC(C)=Cc1cc(C(=O)NCCNC(=O)c2cc(C=C(C)C)nc(NC#N)n2)nc(NC#N)n1", "HCC-2998 colon", "TGI", "> 100 µM"),
]

What the record says about C[C@]12CCC(=O)C=C1CC[C@@H]1C2CC[C@@]2(C)C1CC[C@@H]2OC(=O)C12OC1CCC2=O (stereo not given in full) : TGI is 59 µM

What the record says about CC(=O)OC12OC(C)(C3C(=O)N(c4ccccc4)C(=O)C31)N(c1ccccc1)C2=O (stereo not given) : TGI is > 100 µM

What the record says about CC1=C(C(=O)NCCCN(CCO)CCO)CC(C(=O)NCCCN(CCO)CCO)=C(C)N1 : TGI is > 100 µM

What the record says about O=C1CCc2ccccc2O1 : TGI is > 100 µM

What the record says about Cc1nc(-n2nc(-c3ccccc3)cc2-c2ccccc2)sc1C(/C=C/c1ccc([N+](=O)[O-])cc1)=N/NC(N)=S : TGI is 74 µM

What the record says about CC(=O)CC12NC(=O)N(C)N=C1N(C)C(=O)N(C)C2=O (stereo not given) : TGI is > 100 µM

What the record says about COc1cc(-c2ccc(=O)oc2C#Cc2ccccc2)cc(OC)c1OC : TGI is > 100 µM
